experiment.summary: in vitro
stated.conditions: human, IC50 cytotoxicity Hep 3B
Reported IC50 at 3 days values for a set of molecules
Supply the numeric figure in µg/mL, leaving out any unit text.

Example results:
{"columns": ["molecule", "scale.unit", "IC50 at 3 days"],
 "data": [
  ["CC1=CC[C@@H]2C(C)(C)[C@@H](O)CC[C@@]2(C)[C@@H]1COc1ccc2ccc(=O)oc2c1", "µg/mL", 2.6],
  ["CC(=O)O[C@H](CC/C(C)=C/CC/C(C)=C/COc1ccc2ccc(=O)oc2c1)C(C)(C)O [Compound 2, 10′R-Acetoxy-11′-hydroxyumbelliprenin]", "µg/mL", 19.8],
  ["C[C@@H]1C[C@@H](O)[C@]2(C)[C@@H](C)C(=O)CC[C@H]2[C@]1(C)COc1ccc2ccc(=O)oc2c1 (single isomer, unassigned)", "µg/mL", 17.9]
]}

Record request: IC50 at 3 days value, item COC(=O)CC[C@H]1C(=C(C)C)CC[C@H](C)[C@]1(C)COc1ccc2ccc(=O)oc2c1 [Compound 7, methyl galbanate]
4.33

Check C=C1CC[C@]2(C)C(C)(C)[C@@H](OC(C)=O)CC[C@]2(C)[C@H]1COc1ccc2ccc(=O)oc2c1 (single isomer, unassigned) too.
5.9

====

experiment.summary: MTT cytotoxicity assay, Hep 3B
stated.conditions: human, Hep 3B liver cancer cells, IC50 cytotoxicity Hep 3B
property.name: IC50 at 3 days

{"columns": ["compound", "reported.value"],
 "data": [
  ["COc1cccc2c1C(=O)c1c(O)c3c(c(O)c1C2=O)C[C@@](O)(C(=O)CO)C[C@@H]3O[C@H]1C[C@H](N)[C@H](O)[C@H](C)O1 [Doxorubicin, reference compound]", "0.41 µg/mL"]
]}

Then there is this compound:
Record request: IC50 at 3 days value, item COc1cc(C=O)ccc1O (single isomer, unassigned) [Vanillin, vanillin]
> 20 µg/mL

====

experiment.summary: in vitro
stated.conditions: human
property.name: IC50 at 3 days

{"columns": ["compound", "IC50 at 3 days"],
 "data": [
  ["C[C@@H]1C[C@@H](O)[C@]2(C)[C@@H](C)C(=O)CC[C@H]2[C@]1(C)COc1ccc2ccc(=O)oc2c1 (single isomer, unassigned) [Kamolonol, kamolonol]", "> 20 µg/mL"]
]}

Then there is this compound:
Record request: IC50 at 3 days value, item CC(=O)O[C@H](CC/C(C)=C/CC/C(C)=C/COc1ccc2ccc(=O)oc2c1)C(C)(C)O [Compound 2, 10′R-Acetoxy-11′-hydroxyumbelliprenin]
> 20 µg/mL

====

experiment.summary: MTT cytotoxicity assay, A 549
stated.conditions: human, A 549 lung cancer cells
Reported IC50 at 3 days values for a set of compounds

Record request: IC50 at 3 days value, item COc1cc(C=O)ccc1O (single isomer, unassigned)
16.4 µg/mL

Check COc1cccc2c1C(=O)c1c(O)c3c(c(O)c1C2=O)C[C@@](O)(C(=O)CO)C[C@@H]3O[C@H]1C[C@H](N)[C@H](O)[C@H](C)O1 [Doxorubicin, reference compound] too.
0.35 µg/mL

====

experiment.summary: in vitro
stated.conditions: human, IC50 cytotoxicity MCF 7
property.name: IC50 at 3 days

Record request: IC50 at 3 days value, item CC1=CC[C@@H]2C(C)(C)[C@@H](O)CC[C@@]2(C)[C@@H]1COc1ccc2ccc(=O)oc2c1
3.4 µg/mL

Check CC(=O)O[C@H](CC/C(C)=C/CC/C(C)=C/COc1ccc2ccc(=O)oc2c1)C(C)(C)O [Compound 2, 10′R-Acetoxy-11′-hydroxyumbelliprenin] too.
> 20 µg/mL

Check COC(=O)CC[C@H]1C(=C(C)C)CC[C@H](C)[C@]1(C)COc1ccc2ccc(=O)oc2c1 [Compound 7, methyl galbanate] too.
> 20 µg/mL

Check C=C1CC[C@]2(C)C(C)(C)[C@@H](OC(C)=O)CC[C@]2(C)[C@H]1COc1ccc2ccc(=O)oc2c1 (single isomer, unassigned) too.
9.94 µg/mL

Check C[C@@H]1C[C@@H](O)[C@]2(C)[C@@H](C)C(=O)CC[C@H]2[C@]1(C)COc1ccc2ccc(=O)oc2c1 (single isomer, unassigned) too.
> 20 µg/mL
